Cited source for all entries: paper PMC6484444

# assayedSystem: ClpP1P2 (ClpP1) (Mycobacterium tuberculosis, UniProt P9WPC3+P9WPC5)
# Sequence (P9WPC5 whole entry, looked up): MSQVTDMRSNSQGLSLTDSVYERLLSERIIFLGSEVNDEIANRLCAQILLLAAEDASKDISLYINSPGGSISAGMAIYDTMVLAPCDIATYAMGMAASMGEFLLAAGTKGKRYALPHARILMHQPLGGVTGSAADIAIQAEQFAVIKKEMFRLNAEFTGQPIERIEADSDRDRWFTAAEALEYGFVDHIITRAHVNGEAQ
# Sequence (P9WPC3 whole entry, looked up): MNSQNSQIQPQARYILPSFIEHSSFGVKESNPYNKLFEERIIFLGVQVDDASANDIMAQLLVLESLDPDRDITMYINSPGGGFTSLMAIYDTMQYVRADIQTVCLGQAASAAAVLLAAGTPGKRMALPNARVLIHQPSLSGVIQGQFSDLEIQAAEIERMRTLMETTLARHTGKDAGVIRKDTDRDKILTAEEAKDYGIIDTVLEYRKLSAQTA
propertyMeasured: IC50 (µM)

smilesInput: O=c1oc(Cl)c(Cl)c2ccccc12
assayedSystem: ClpP1P2 (ClpP1) (Mycobacterium tuberculosis, UniProt P9WPC3+P9WPC5)
unit: µM
testResult: 80
